The reported measurements were obtained from patent US11034725B2.

target: PCSK9Δhelix (Homo sapiens); construct: Human PCSK9 construct M1-Q692 with an engineered TEV site (residue deletion Y166, R167); made in house; host or cells: CHO; assay: PCSK9Δhelix/Ab20 TR-FRET binding assay; details: TR-FRET; Table 8E, additional compounds; read-out: PCSK9Δhelix/Ab20 IC50
Sequence (Q8NBP7 with tags, fused parts or gaps limits assumed): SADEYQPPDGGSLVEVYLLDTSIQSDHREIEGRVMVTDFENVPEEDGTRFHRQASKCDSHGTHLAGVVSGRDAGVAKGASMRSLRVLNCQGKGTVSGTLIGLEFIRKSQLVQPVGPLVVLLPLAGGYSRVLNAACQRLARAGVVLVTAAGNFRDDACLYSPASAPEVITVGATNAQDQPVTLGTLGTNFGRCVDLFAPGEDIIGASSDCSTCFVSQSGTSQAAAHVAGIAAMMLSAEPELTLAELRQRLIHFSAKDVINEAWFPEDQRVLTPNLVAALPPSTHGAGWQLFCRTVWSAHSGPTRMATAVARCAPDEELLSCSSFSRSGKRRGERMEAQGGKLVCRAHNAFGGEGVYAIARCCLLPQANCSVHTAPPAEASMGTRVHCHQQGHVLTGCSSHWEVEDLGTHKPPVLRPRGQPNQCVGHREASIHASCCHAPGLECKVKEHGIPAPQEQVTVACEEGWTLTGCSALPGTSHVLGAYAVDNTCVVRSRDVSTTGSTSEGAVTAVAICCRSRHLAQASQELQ
Sequence (Q8NBP7 31-152 partner limits assumed): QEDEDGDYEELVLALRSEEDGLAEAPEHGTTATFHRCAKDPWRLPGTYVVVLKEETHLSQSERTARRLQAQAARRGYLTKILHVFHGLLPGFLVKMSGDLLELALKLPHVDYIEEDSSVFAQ
Numbered stars: 1 amine (or outer) side, 2 acyl side, 3 side chain; on linkers, the order of the positions; unused ones are H or OH. Square brackets hold non-standard residues; d marks the D form. Peptide text beside a SMILES is read from it. * marks the point of attachment. Propanoyl(3-(4-Cl-Ph)) = O=C(CCc1ccc(Cl)cc1)*; hArg = N=C(N)NCCCC[C@H](N)C(=O)O; X3 = O=C(CC1CCN(Cc2ccccn2)CC1)*; Suc = O=C(CCC(=O)[*:2])[*:1]; X30 = O=C(CCc1cccc(O)c1)*; X35 = Nc1ccc(CCC(=O)*)cn1; Morpholide = C1CN(*)CCO1; Pentanoyl = CCCCC(=O)*
Reported pIC50 values follow for various compounds
Scale explanation: pIC50 corresponds to minus log10 of a concentration expressed in moles per litre.

Field: example entries. Status: answers known.
| COMPOUND | RECORDED MEASUREMENT |
| --- | --- |
| CC[C@H](C)[C@H](NC(=O)[C@H](CCCCNC(=N)N)NC(=O)[C@@H](NC(=O)[C@H](CC(C)C)NC(=O)[C@H](CC(N)=O)NC(=O)[C@H](Cc1c[nH]c2ccccc12)NC(=O)CCc1ccc(Cl)cc1)C(C)C)C(=O)NCC(=O)N[C@@H](CC(C)C)C(=O)N[C@@H](CC(C)C)C(=O)N[C@@H](CCCNC(=N)N)C(N)=O [Compound 199] ({Propanoyl(3-(4-Cl-Ph))}-WNLV[hArg]IGLLR-NH2) | 6.70 |
| CC[C@H](C)[C@H](NC(=O)[C@H](CCCNC(=N)N)NC(=O)[C@@H](NC(=O)[C@H](CC(C)C)NC(=O)[C@H](CC(N)=O)NC(=O)[C@H](Cc1c[nH]c2ccccc12)NC(=O)CC1CCN(Cc2ccccn2)CC1)C(C)C)C(=O)NCC(=O)N[C@@H](CC(C)C)C(=O)N[C@@H](CC(C)C)C(=O)N[C@@H](CCCNC(=N)N)C(N)=O [Compound 130] (X3-WNLVRIGLLR-NH2) | 5.07 |
| CC[C@H](C)[C@H](NC(=O)[C@H](CCCNC(=N)N)NC(=O)[C@@H](NC(=O)[C@H](CC(C)C)NC(=O)[C@H](CC(N)=O)NC(=O)[C@H](Cc1c[nH]c2ccccc12)NC(=O)CCc1ccc(N)nc1)C(C)C)C(=O)NCC(=O)N[C@@H](CC(C)C)C(=O)N[C@H](C(=O)N[C@@H](CCCNC(=N)N)C(N)=O)[C@@H](C)O [Compound 171] (X35-WNLVRIGLTR-NH2) | 5.11 |
| CCCCC(=O)N[C@@H](Cc1c[nH]c2ccccc12)C(=O)N[C@@H](CC(N)=O)C(=O)N[C@@H](CC(C)C)C(=O)N[C@H](C(=O)N[C@@H](CCCNC(=N)N)C(=O)N[C@H](C(=O)NCC(=O)N[C@@H](CC(C)C)C(=O)N[C@@H](CC(C)C)C(=O)N[C@@H](CCCNC(=N)N)C(=O)O)[C@@H](C)CC)C(C)C [Compound 152] (Pentanoyl-WNLVRIGLLR-OH) | 4.85 |
| CC[C@H](C)[C@H](NC(=O)[C@H](CCCCNC(=N)N)NC(=O)[C@@H](NC(=O)[C@H](CC(C)C)NC(=O)[C@H](CC(N)=O)NC(=O)[C@H](Cc1c[nH]c2ccccc12)NC(=O)CCC(=O)N1CCOCC1)C(C)C)C(=O)NCC(=O)N[C@@H](CC(C)C)C(=O)N[C@@H](CC(C)C)C(=O)N[C@@H](CCCNC(=N)N)C(N)=O [Compound 194] ({Morpholide-Suc}-WNLV[hArg]IGLLR-NH2) | 5.72 |

Note pIC50 for the compound shown: CC[C@H](C)[C@H](NC(=O)[C@H](CCCNC(=N)N)NC(=O)[C@@H](NC(=O)[C@H](CC(C)C)NC(=O)[C@H](CC(N)=O)NC(=O)[C@H](Cc1c[nH]c2ccccc12)NC(=O)CCc1cccc(O)c1)C(C)C)C(=O)NCC(=O)N[C@@H](CC(C)C)C(=O)N[C@H](C(=O)N[C@@H](CCCNC(=N)N)C(N)=O)[C@@H](C)O [Compound 168] (X30-WNLVRIGLTR-NH2)
5.11
